- Test system: Monocotyledonous and dicotyledonous test plants
- assay.method.text: Herbicidal action prior to emergence of the plants (pre-emergence action), Example B1
- Format: in vivo
- measurement.conditions: preemergence application, 250 g/ha, ABUTH, evaluated after 4 weeks; 100%=total damage, 0%=no damage
Each entry below carries its recorded herbicidal damage, ABUTH.
Numeric only. Scale: %

>>> observed_measurement("CC1(C)C(=O)C(C(=O)c2ccc(C(F)(F)F)n3cnnc23)=C(O)C(C)(C)C1=O")
100

The reported value for Cc1nnc2c(C(=O)C3=C(O)C4CCC(C4)C3=O)ccc(C(F)F)n12 (centres unmarked) in terms of herbicidal damage, ABUTH is 20

What the record says about CC(C)c1nc2c(C(=O)C3=C(O)C4CCC(C4)C3=O)ccc(C(F)(F)F)n2n1 (centres unmarked) : herbicidal damage, ABUTH is 30

herbicidal damage, ABUTH measured on O=C1CCCC(O)=C1C(=O)c1ccc(C(F)(F)F)n2c(OC(F)F)nnc12 = 50

herbicidal damage, ABUTH for O=C1CCCC(O)=C1C(=O)c1ccc(C(F)(F)F)n2c(C3CC3)nnc12 is 30

Lab book: herbicidal damage, ABUTH of Cc1nnc2c(C(=O)C3=C(O)CC(C)CC3=O)ccc(C(F)(F)F)n12 (centres unmarked) noted as 70

get_value(item= O=C(C1=C(O)C2CCC(C2)C1=O)c1ccc(C(F)(F)F)n2c(-c3ccc(Cl)cc3)nnc12 (centres unmarked) , readout=herbicidal damage, ABUTH) returns 50

Quick note, herbicidal damage, ABUTH for O=C(C1=C(O)C2CCC(C2)C1=O)c1ccc(C(F)(F)F)n2cnnc12 (centres unmarked) landed at 100
